Procedure Text: in vivo
Recorded Conditions: athymic nude, mouse, plasma, po, 10 mg/kg
Description: AUC (0 to infinity) in athymic nude mouse at 10 mg/kg, po

Compound	AUC(0-inf)
CCN1CCN(C(=O)c2ccc3c(c2)sc2nc(-c4ccc(NC(=O)Nc5cc(C(C)(C)C)on5)cc4)cn23)CC1	0.67 µM·h
CC(C)(C)c1cc(NC(=O)Nc2ccc(-c3cn4c(n3)sc3cc(C(=O)O)ccc34)cc2)no1	21.3 µM·h
CC(C)(C)c1cc(NC(=O)Nc2ccc(-c3cn4c(n3)sc3cc(OCCCN5CCN(S(C)(=O)=O)CC5)ccc34)cc2)no1	11.7 µM·h
CC(C)(C)c1cc(NC(=O)Nc2ccc(-c3cn4c(n3)sc3cc(CCCN5CCOCC5)ccc34)cc2)no1	14.6 µM·h

Where do the numbers come from? From ChEMBL document CHEMBL1155227.
